Test system: KMS11 (human myeloma cell line)
Test Name: Cell proliferation assay (CellTiter-Glo) in KMS11 cells
Format: cell-based
Condition Info: KMS-11, 72 h, Table 5, 3 days, read-out: KMS11-luc EC50
Method: KMS11 (human myeloma cell line), were cultured in IMDM supplemented with 10% FBS, sodium pyruvate and antibiotics. Cells were plated in the same medium at a density of 2000 cells per well into 96 well tissue culture plates, with outside wells vacant, on the day of assay. […] After 3 days plates were equilibrated to room temperature and equal volume of CellTiter-Glow Reagent (Promega) was added to the culture wells. The plates were agitated briefly and luminescent signal was measured with luminometer.
Outcome Measure: EC50 (µM)
API: value field is a number in µM; no unit string.

Give reported EC50 for `COCCOc1ccc(F)c(-c2nc(C(=O)Nc3cnccc3[C@H]3C[C@@H](N)[C@](C)(O)[C@@H](C)C3)ccc2F)c1F` (KMS11 (human myeloma cell line))
0.202

Continuing:
Give reported EC50 for `COCCOc1cc(F)c(-c2nc(C(=O)Nc3cnccc3[C@H]3C[C@@H](O)[C@](C)(O)[C@@H](C)C3)c(N)cc2F)c(F)c1` (KMS11 (human myeloma cell line))
0.427

Give reported EC50 for `C[C@H]1C[C@@H](c2ccncc2NC(=O)c2ccc(F)c(-c3c(F)cc(C4(O)CCOCC4)cc3F)n2)C[C@@H](O)[C@]1(C)O` (KMS11 (human myeloma cell line))
0.322

Give reported EC50 for `C[C@H]1C[C@@H](c2ccncc2NC(=O)c2ccc(F)c(-c3c(F)cc(C4(F)CCOCC4)cc3F)n2)C[C@@H](N)[C@]1(C)O` (KMS11 (human myeloma cell line))
0.136

Give reported EC50 for `C[C@H]1C[C@@H](c2ccncc2NC(=O)c2nc(-c3cc(F)ccn3)ccc2N)C[C@@H](O)[C@]1(C)O` (KMS11 (human myeloma cell line))
7.14

Give reported EC50 for `C[C@H]1C[C@@H](c2ccncc2NC(=O)c2ccc(F)c(-c3c(F)cccc3F)n2)C[C@@H](O)[C@@]1(O)CF` (KMS11 (human myeloma cell line))
0.133

* * *

IC50 values, listed per item
Tested Target: UniProt:Q9P1W9
Sequence (Q9P1W9 whole entry): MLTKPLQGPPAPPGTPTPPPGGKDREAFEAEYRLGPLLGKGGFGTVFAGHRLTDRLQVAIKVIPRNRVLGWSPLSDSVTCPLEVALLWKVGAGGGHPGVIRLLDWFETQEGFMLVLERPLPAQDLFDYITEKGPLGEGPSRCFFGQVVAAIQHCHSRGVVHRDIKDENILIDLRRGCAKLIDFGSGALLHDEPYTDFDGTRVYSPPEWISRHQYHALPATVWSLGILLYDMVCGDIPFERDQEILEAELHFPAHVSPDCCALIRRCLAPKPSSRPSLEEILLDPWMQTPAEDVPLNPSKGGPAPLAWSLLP
Test Name: Pim2 AlphaScreen assay (high ATP)
Answer format: value, then unit.

Give the measured IC50 for C[C@H]1C[C@@H](c2ccncc2NC(=O)c2nc(-c3cccc(F)n3)c(F)cc2N)C[C@@H](O)[C@]1(C)O [Example 126]
14200 nM

Give the measured IC50 for C[C@H]1C[C@@H](c2ccncc2NC(=O)c2ccc(F)c(-c3c(F)cc(S(C)(=O)=O)cc3F)n2)C[C@@H](O)[C@]1(C)O [Example 9]
1010 nM

Give the measured IC50 for C[C@H]1C[C@@H](c2ccncc2NC(=O)c2ccc(F)c(-c3c(F)cc(C(C)(C)C(=O)O)cc3F)n2)C[C@@H](N)[C@]1(C)O [Example 103]
14.1 nM

Continuing:
Give the measured IC50 for C[C@H]1C[C@@H](c2ccncc2NC(=O)c2nc(-c3c(F)cc(C(C)(C)O)cc3F)c(F)cc2N)C[C@@H](O)[C@]1(C)O [Example 97]
28.9 nM

Give the measured IC50 for CCOc1cccc(-c2ccc(N)c(C(=O)Nc3cnccc3[C@H]3C[C@@H](O)[C@](C)(O)[C@@H](C)C3)n2)n1 [Example 127]
9180 nM

Give the measured IC50 for CC(C)Oc1cc(F)c(-c2nc(C(=O)Nc3cnccc3[C@H]3C[C@@H](N)[C@](C)(O)[C@@H](C)C3)ccc2F)c(F)c1 [Example 64]
1.54 nM
